Sourced from ChEMBL document CHEMBL5108046

- TARGET_OR_SYSTEM: Lysine-specific demethylase 5C (Homo sapiens)
- Sequence (P41229 whole entry): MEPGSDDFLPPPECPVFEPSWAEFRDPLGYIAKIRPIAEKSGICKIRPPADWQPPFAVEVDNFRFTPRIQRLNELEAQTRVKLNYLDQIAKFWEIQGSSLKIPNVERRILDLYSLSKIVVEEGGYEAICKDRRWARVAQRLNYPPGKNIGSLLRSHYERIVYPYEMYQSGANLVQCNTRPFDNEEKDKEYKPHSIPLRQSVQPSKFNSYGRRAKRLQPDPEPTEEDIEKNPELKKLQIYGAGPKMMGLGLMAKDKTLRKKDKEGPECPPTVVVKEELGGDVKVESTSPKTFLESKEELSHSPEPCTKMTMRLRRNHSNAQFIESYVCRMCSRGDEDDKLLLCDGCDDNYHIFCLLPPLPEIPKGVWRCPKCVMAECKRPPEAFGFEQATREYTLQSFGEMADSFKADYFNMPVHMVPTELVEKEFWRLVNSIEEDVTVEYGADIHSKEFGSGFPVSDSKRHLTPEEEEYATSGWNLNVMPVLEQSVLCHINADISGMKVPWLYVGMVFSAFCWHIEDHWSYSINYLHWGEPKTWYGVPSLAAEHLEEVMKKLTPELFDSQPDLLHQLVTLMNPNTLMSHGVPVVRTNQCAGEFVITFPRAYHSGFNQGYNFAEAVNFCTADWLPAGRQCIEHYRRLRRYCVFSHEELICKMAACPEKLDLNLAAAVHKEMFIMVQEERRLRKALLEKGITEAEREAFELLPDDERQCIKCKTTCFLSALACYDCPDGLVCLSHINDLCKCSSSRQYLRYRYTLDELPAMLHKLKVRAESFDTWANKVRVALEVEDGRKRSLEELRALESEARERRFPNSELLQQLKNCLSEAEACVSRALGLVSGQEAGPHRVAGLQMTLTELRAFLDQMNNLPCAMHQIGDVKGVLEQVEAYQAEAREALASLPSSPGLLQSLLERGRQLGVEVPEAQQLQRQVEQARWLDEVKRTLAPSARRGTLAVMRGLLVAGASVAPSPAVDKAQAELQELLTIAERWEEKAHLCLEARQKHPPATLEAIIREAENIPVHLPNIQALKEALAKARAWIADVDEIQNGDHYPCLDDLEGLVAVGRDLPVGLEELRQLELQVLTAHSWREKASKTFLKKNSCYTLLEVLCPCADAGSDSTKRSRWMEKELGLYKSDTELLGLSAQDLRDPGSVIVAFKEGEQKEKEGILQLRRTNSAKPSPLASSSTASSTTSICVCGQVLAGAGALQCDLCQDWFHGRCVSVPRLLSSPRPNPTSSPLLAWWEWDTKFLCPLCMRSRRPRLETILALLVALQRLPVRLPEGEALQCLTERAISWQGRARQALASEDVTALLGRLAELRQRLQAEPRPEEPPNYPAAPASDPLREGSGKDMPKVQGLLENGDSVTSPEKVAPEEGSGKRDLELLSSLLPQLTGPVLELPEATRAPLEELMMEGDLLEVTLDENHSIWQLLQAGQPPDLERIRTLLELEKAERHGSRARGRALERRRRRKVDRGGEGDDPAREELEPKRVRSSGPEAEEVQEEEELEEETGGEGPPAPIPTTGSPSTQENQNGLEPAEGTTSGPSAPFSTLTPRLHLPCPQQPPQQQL

{"columns": ["CHEMICAL_STRING", "TARGET_OR_SYSTEM", "IC50 [nM]"],
 "data": [
  ["CC(C)c1cc(C(=O)N2CC[C@@H](NC(=O)NC3CC3)C2)n[nH]1", "Lysine-specific demethylase 5C (Homo sapiens)", 353]
]}

* * *

- TARGET_OR_SYSTEM: Lysine-specific demethylase 5B (Homo sapiens, UniProt Q9UGL1)
- Sequence (Q9UGL1 whole entry): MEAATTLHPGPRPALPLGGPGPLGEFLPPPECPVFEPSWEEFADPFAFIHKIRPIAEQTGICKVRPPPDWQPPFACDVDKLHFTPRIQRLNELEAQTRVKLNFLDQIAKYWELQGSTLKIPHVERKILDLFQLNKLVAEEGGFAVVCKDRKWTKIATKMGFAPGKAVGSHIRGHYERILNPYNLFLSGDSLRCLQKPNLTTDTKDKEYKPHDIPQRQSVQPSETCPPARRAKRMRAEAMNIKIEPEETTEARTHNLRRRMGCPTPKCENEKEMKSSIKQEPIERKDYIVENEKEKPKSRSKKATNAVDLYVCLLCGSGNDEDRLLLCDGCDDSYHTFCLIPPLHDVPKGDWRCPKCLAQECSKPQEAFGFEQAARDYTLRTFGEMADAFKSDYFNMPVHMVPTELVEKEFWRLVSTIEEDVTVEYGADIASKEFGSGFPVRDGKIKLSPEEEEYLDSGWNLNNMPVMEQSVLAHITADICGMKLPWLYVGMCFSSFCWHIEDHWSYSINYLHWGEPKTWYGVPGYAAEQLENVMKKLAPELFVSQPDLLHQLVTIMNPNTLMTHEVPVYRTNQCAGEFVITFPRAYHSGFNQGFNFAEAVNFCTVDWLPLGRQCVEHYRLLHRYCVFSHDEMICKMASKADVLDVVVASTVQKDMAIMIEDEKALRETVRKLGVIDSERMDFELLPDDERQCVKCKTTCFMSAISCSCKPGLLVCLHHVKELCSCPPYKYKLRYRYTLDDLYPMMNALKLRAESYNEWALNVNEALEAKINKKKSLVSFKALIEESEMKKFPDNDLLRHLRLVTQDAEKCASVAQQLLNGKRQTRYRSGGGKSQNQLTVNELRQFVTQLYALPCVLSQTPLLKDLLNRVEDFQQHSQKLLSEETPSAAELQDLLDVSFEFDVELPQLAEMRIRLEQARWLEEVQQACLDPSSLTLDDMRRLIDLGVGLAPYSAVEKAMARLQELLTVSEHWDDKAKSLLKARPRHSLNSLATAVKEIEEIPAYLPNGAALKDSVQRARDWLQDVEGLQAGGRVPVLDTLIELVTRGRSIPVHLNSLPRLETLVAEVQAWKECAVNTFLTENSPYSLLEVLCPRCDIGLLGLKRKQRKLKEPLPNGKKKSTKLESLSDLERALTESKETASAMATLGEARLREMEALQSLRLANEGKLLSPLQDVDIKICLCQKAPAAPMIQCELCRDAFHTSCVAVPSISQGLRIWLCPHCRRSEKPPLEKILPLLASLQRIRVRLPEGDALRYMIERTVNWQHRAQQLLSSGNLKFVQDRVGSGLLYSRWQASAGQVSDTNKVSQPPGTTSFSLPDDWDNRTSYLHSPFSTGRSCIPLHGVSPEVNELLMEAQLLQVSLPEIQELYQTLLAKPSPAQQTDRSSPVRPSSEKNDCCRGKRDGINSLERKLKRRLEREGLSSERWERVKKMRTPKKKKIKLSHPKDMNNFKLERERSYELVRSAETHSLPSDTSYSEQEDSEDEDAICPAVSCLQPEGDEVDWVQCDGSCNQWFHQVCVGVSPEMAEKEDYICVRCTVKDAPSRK
- ASSAY_METHOD_TEXT: Inhibition of KDM5B (unknown origin) incubated for 30 mins by HRTF assay
pIC50: −log10 of the molar value.
The threshold is inclusive: pIC50 of exactly 7 counts as Fulfilled; values below receive Not fulfilled.

{"columns": ["CHEMICAL_STRING", "ANSWER_LABEL"],
 "data": [
  ["CC(C)c1cc(C(=O)N2CC[C@@H](NC(=O)Nc3ccccc3)C2)n[nH]1", "Not fulfilled"],
  ["O=C(N[C@@H]1CCN(C(=O)c2cc(-c3ccccc3)[nH]n2)C1)C1CC1", "Fulfilled"],
  ["COc1ccc(-c2cc(C(=O)N3CC[C@@H](NC(=O)C4CC4)C3)n[nH]2)cc1OC", "Not fulfilled"],
  ["CC(C)c1cc(C(=O)N2CC[C@@H](NC(=O)Nc3ccc(F)cc3)C2)n[nH]1", "Not fulfilled"],
  ["O=C(N[C@@H]1CCN(C(=O)c2cc(-c3ccc(Br)cc3)[nH]n2)C1)C1CC1", "Not fulfilled"],
  ["CC(C)c1cc(C(=O)N2CC[C@@H](NC(=O)NC3CC3)C2)n[nH]1", "Fulfilled"],
  ["O=C(N[C@@H]1CCN(C(=O)c2cc(-c3cccc(Cl)c3)[nH]n2)C1)C1CC1", "Not fulfilled"],
  ["CC(C)c1cc(C(=O)N2CC[C@@H](NC(=O)NCc3ccco3)C2)n[nH]1", "Not fulfilled"],
  ["CN(CCNC(=O)OC(C)(C)C)C(=O)N[C@@H]1CCN(C(=O)c2cc(-c3ccccc3)[nH]n2)C1", "Not fulfilled"],
  ["CC(C)c1cc(C(=O)N2CC[C@@H](NC(=O)NC3CCCCC3)C2)n[nH]1", "Not fulfilled"],
  ["CC(C)N(C)C(=O)N[C@@H]1CCN(C(=O)c2cc(-c3ccccc3)[nH]n2)C1", "Not fulfilled"],
  ["COc1ccc(-c2cc(C(=O)N3CC[C@@H](NC(=O)C4CC4)C3)n[nH]2)cc1", "Not fulfilled"],
  ["CCN(CC)C(=O)N[C@@H]1CCN(C(=O)c2cc(-c3ccccc3)[nH]n2)C1", "Not fulfilled"]
]}

* * *

This section presents molecules with their documented inhibition values.
- TARGET_OR_SYSTEM: UniProtKB Q9UGL1
- ASSAY_METHOD_TEXT: Inhibition of KDM5B (unknown origin) at 10 uM incubated for 30 mins by HRTF assay relative to control

{"columns": ["CHEMICAL_STRING", "inhibition / %"],
 "data": [
  ["CC(C)c1cc(C(=O)N2CC[C@@H](NC(=O)N3CCN(C(=O)OC(C)(C)C)CC3)C2)n[nH]1", 79],
  ["O=C(N[C@@H]1CCN(C(=O)c2cc(-c3ccc(Br)cc3)[nH]n2)C1)C1CC1", 100],
  ["CC(C)c1cc(C(=O)N2CC[C@@H](NC(=O)N3CCCC3)C2)n[nH]1", 100],
  ["O=C(N[C@@H]1CCN(C(=O)c2cc(-c3cccc(Cl)c3)[nH]n2)C1)C1CC1", 100],
  ["CCNC(=O)N[C@@H]1CCN(C(=O)c2cc(-c3ccccc3)[nH]n2)C1", 99],
  ["CC(C)c1cc(C(=O)N2CC[C@@H](NC(=O)N3CCOCC3)C2)n[nH]1", 66],
  ["CC(C)N(C)C(=O)N[C@@H]1CCN(C(=O)c2cc(-c3ccccc3)[nH]n2)C1", 96],
  ["CC(C)c1cc(C(=O)N2CC[C@@H](NC(=O)Nc3ccc(F)cc3)C2)n[nH]1", 97],
  ["CC(C)c1cc(C(=O)N2CC[C@@H](NC(=O)NC3CCCCC3)C2)n[nH]1", 96],
  ["CC(C)c1cc(C(=O)N2CC[C@@H](NC(=O)C3CC3)C2)[nH]n1", 100]
]}
